Target: human ALK2 R206H (Homo sapiens, UniProt Q04771, R206H)
Sequence (Q04771 21-509 R206H): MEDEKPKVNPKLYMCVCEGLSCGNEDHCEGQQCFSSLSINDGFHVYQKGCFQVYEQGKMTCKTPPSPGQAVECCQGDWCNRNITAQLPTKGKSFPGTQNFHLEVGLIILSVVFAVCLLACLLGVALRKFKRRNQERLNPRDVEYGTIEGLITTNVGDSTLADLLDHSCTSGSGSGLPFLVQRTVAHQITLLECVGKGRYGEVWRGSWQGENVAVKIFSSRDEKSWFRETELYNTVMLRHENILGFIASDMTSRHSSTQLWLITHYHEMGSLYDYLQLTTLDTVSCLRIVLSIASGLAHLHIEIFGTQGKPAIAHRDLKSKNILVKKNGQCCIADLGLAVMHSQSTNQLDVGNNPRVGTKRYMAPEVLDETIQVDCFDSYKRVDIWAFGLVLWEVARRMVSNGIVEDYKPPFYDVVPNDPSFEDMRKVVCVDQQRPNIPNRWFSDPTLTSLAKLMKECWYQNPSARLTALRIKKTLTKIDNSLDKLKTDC
Test: Cell-based ALK2-R206H cell activity assay (Smad1-Ser463/Ser465 phosphorylation by AlphaLISA in HEK293-ALK2-R206H cells)
Settings: phospho-Smad1 AlphaLISA, read-out: Cell Line (Cell Assay, IC50 class)
pIC50: −log10 of the molar value.
Measured Endpoint: pIC50

# example entries with known answers
• Cn1cc(-c2cc3c(N4CCN(C(=O)O[C@H]5CCOC5)CC4)ccnc3[nH]2)cn1 [Compound 150] = 6.30 to 7.00
• CC(C)N1CCC[C@H](c2ccc(-c3cc4c(N5CCN(C(=O)OC6COC6)CC5)ccnc4[nH]3)cc2)C1 [Compound 468] = ≥ 7.00
• O=C(OC1COC1)N1CCN(c2ccnc3[nH]c(-c4nc5c(s4)COCC5)cc23)CC1 [Compound 371] = ≥ 7.00
• Cn1cc(-c2cc3c(N4CCN(C(=O)OC5CC5)CC4)ccnc3[nH]2)cn1 [Compound 30] = ≥ 7.00
• Cc1nc(-c2[nH]c3nccc(N4CCN(C(=O)OC5CC(F)(F)C5)CC4)c3c2C#N)cn1C [Compound 412] = ≥ 7.00

We next turn to a different molecule, shown below.
# pIC50 measured on human ALK2 R206H (Homo sapiens, UniProt Q04771, R206H) for item CC(C)OC(=O)N1CCN(c2ccnc3[nH]c(-c4cnn(C)c4)cc23)CC1 [Compound 41] = 6.30 to 7.00

* * *

Target: human ALK2 R206H (Homo sapiens, UniProt Q04771, R206H)
Sequence (Q04771 21-509 R206H): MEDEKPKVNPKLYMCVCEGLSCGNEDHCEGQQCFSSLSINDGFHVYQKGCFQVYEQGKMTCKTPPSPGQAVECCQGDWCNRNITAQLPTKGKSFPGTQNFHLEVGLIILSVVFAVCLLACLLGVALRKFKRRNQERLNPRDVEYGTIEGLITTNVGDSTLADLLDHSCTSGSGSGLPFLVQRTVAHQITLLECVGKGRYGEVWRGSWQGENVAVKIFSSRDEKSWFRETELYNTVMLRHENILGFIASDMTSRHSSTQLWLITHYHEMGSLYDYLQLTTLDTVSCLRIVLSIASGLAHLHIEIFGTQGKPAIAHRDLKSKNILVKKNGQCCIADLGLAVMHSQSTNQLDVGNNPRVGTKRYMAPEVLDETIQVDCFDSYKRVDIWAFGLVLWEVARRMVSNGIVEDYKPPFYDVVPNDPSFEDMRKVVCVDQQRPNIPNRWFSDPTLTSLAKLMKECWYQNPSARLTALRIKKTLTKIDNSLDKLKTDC
Assay: Cell-based ALK2-R206H cell activity assay (Smad1-Ser463/Ser465 phosphorylation by AlphaLISA in HEK293-ALK2-R206H cells)
Conditions: phospho-Smad1 AlphaLISA, read-out: Cell Line (Cell Assay, IC50 class)
pIC50: −log10 of the molar value.
In this section we review reported pIC50 values for a set of compounds.

* CCOC(=O)N1CCN(c2ccnc3[nH]c(-c4cnn(S(C)(=O)=O)c4)cc23)CC1 | 6.30 to 7.00

The reported pIC50 of the compound CCCC(C)C(=O)N1CCN(c2ccnc3[nH]c(-c4cnn(C)c4)cc23)CC1 (stereo not drawn) was < 6.30

The reported pIC50 of the compound Cc1nc(-c2cc3c(N4CCN(C(=O)OC5CCC5)CC4)ccnc3[nH]2)sc1C was ≥ 7.00

The reported pIC50 of the compound O=C(OC1COC1)N1CCN(c2ccnc3[nH]c(-c4cn([C@H]5CCOC5)cn4)cc23)CC1 was ≥ 7.00

The reported pIC50 of the compound Cn1cc(-c2[nH]c3nccc(N4CCN(C(=O)OC5CCC5)CC4)c3c2C#N)cn1 was ≥ 7.00

The reported pIC50 of the compound Cn1cc(-c2[nH]c3nccc(N4CCN(C(=O)O[C@H]5CCOC5)CC4)c3c2C#N)cn1 was ≥ 7.00

The reported pIC50 of the compound Cc1nc(-c2[nH]c3nccc(N4CCN(C(=O)OC5COC5)CC4)c3c2C#N)cs1 was ≥ 7.00

The reported pIC50 of the compound N#Cc1ccc(-c2cc3c(N4CCN(C(=O)OC5COC5)CC4)ccnc3[nH]2)cc1 was ≥ 7.00

The reported pIC50 of the compound Cn1cc(-c2cc3c(N4CCN(C(=O)OCC5COC5)CC4)ccnc3[nH]2)cn1 was 6.30 to 7.00

* * *

In this section we review reported pIC50 values for a set of compounds.
Biological target: ALK2R206H (mutant ALK2, N-terminally tagged with GST) (Homo sapiens, UniProt Q04771, R206H)
Experiment: ALK binding assay (LANTHASCREEN TR-FRET competitive binding, displacement of Kinase Tracer 178)
Conditions: read-out: Binding Assay (IC50 class)
pIC50: −log10 of the molar value.

# example entries with known answers
• CCOC(=O)N1CCN(c2ccnc3[nH]c(-c4cnn(S(C)(=O)=O)c4)cc23)CC1 = ≥ 8.00
• O=C(C1CC1)N1CCN(c2ccnc3[nH]c(-c4ccc(C5CCOC5)cc4)cc23)CC1 (centres unmarked) = ≥ 8.00
• Cn1cnc(-c2[nH]c3nccc(N4CCN(C(=O)O[C@H]5C[C@@H](F)C5)CC4)c3c2C#N)c1 = ≥ 8.00

The reported pIC50 of the compound Cc1nc(-c2cc3c(N4CCN(C(=O)OCC(F)F)CC4)ccnc3[nH]2)sc1C was ≥ 8.00

The reported pIC50 of the compound Cc1nc(-c2[nH]c3nccc(N4CCN(C(=O)OC5CC5)CC4)c3c2C#N)cn1C was ≥ 8.00

The reported pIC50 of the compound Cn1cc(-c2cc3c(N4CCN(C(=O)CCC5CCCC5)CC4)ccnc3[nH]2)cn1 was 7.30 to 8.00

The reported pIC50 of the compound Cn1cc(-c2[nH]c3nccc(N4CCN(C(=O)OC5CC5)CC4)c3c2C#N)cn1 was ≥ 8.00

The reported pIC50 of the compound CCOC(=O)N1CCN(c2ccnc3[nH]c(-c4ncc(OC)cc4C#N)cc23)CC1 was ≥ 8.00

* * *

Molecular target: human ALK2 R206H (Homo sapiens, UniProt Q04771, R206H)
Construct: expressed in transfected cells; host or cells: HEK293 (ATCC CRL1573), lentivirus transduction, blasticidin selection
Sequence (Q04771 21-509 R206H): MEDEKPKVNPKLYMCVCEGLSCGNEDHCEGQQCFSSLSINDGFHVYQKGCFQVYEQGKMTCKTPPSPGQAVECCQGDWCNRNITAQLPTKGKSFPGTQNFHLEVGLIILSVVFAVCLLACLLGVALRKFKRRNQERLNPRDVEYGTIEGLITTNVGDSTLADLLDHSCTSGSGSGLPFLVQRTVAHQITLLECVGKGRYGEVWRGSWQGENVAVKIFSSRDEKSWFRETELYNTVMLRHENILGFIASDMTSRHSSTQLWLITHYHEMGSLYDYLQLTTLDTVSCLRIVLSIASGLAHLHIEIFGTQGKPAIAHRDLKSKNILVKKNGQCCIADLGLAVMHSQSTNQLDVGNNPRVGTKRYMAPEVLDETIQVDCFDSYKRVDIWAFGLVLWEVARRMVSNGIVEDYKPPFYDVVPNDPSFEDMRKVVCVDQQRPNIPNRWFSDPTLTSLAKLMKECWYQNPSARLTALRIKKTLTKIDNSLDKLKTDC
Assay: Cell-based ALK2-R206H cell activity assay (Smad1-Ser463/Ser465 phosphorylation by AlphaLISA in HEK293-ALK2-R206H cells)
Conditions: phospho-Smad1 AlphaLISA, read-out: Cell Line (Cell Assay, IC50 class)
pIC50: −log10 of the molar value.
Measured Endpoint: pIC50

* Cn1cc(-c2cc3c(N4CCN(C(=O)O[C@@H]5CCC5(F)F)CC4)ccnc3[nH]2)cn1 | ≥ 7.00
* COc1ccc(-c2cc3c(N4CCN(C(=O)[C@H]5CC[C@H](O)CC5)CC4)ccnc3[nH]2)cc1 | ≥ 7.00
* CC(C)(O)c1ccc(-c2cc3c(N4CCN(C(=O)C5CC5)CC4)ccnc3[nH]2)cc1 | ≥ 7.00
* Cc1csc(-c2cc3c(N4CCN(C(=O)C5CC5)CC4)ccnc3[nH]2)n1 | 6.30 to 7.00

The reported pIC50 of the compound COC1CC(OC(=O)N2CCN(c3ccnc4[nH]c(-c5cnn(C)c5)cc34)CC2)C1 (centres unmarked) was 6.30 to 7.00
